targetOrSystem: T1, human CCR8 (human, UniProt P51685 1-355)
T1 construct: Full length; also called huCCR8; C-C motif chemokine receptor 8
T1 sequence (P51685 whole entry): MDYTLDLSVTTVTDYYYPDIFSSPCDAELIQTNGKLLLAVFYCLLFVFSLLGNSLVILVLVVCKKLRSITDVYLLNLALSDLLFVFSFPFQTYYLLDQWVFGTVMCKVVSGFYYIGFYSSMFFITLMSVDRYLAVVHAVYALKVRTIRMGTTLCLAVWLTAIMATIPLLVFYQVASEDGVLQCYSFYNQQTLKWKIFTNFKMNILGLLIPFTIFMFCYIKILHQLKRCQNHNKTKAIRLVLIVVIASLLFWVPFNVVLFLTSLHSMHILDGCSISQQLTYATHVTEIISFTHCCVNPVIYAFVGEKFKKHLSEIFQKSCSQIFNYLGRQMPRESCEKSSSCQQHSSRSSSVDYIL
measurementProtocol: flow cytometry, stimulated human primary Treg cells (high CCR8)
// reported Emax for each item listed
Could you give me the number in RLU? Just the number is fine.

# example entries with known answers
{"columns": ["binder", "Emax / RLU"],
 "data": [
  ["hu305-5P-3a-AF (antibody, V domains shown) VH: QVQLKQSGPGLVKPSETLSLTCTVSGFSLTSYGVHWVRQPPGKGLEWLGVIWRGGTTDYNPSLKSRVTFSKDSSKNQVSLKLSSVTAADTAVYYCAKNRVTTVVAPNFYAMDYWGQGTLVTVSS VL: DIVMTQSPDSLAVSLGERATINCKSSQSLLYSGNQKNYLAWYQQKPGQPPKLLIYWASTRKSGVPDRFSGSGSGTDFTLTISSLKAEDVAVYYCQQYYTYPLTFGQGTRLEIK", 1720],
  ["hu305-5W-3a-AF (antibody, V domains shown, also called afucosylated hu305-5W-3a) VH: QVQLKQSGPGLVKPSETLSLTCTVSGFSLAVYGVHWVRQPPGKGLEWLGVIWRGGTTDYNPSLKSRLTFSKDSSKSQVSLKLSSVTAADTAVYYCAKNRVTTVVAPNFYAMDYWGQGTLVTVSS VL: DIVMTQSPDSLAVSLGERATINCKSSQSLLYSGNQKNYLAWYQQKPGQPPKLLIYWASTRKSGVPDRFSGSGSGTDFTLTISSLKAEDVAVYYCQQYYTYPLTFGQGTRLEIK", 2030],
  ["hu305-4F-2m-AF (antibody, V domains shown) VH: QVQLQESGPGLVKPSQTLSLTCTVSGFSLAVYGVHWVRQPPGKGLEWLGVIWRGGTTDYNPSLKSRLTFSKDSSKSQVSLKLSSVTAADTAVYYCAKNRVTTVVAPNFYAMDYWGQGTLVTVSS VL: DIVMTQSPDSLAVSLGERVTINCKSSQSLLYSGNQKNYLAWYQQKPGQSPKLLIYWASTRKSGVPDRFSGSGSGTDFTLTISSLQAEDVAAYYCQQYYTYPLTFGQGTRLEIK", 1860],
  ["Ch305-AF (antibody, V domains shown, human IgG1/kappa; also called afucosylated Ch305) VH: QVQMKQSGPSLVQPSQSLSITCTVSGFSLTSYGVHWVRQSPGKGLEWLGVIWRGGTTDYNAAFMSRLSFTKDSSKSQVFFKLNSLQADDTAIYYCAKNRVTTVVAPNFYAMDYWGQGTSVTVSS VL: DIVMTQSPSSLAVSVGEKVTMSCKSSQSLLYSGNQKNYLAWYQQKPGQSPKLLIYWASTRKSGVPDRLTGSGSGTDFTLTISSVKAEDLAAYYCQQYYTYPLTFGAGTRLEIK", 1750]
]}

Field: next binder
Ask: What Emax value was documented for this binder, hu305-4F-2l-AF (antibody, V domains shown, also called hu305-4F-21-AF; hu305-4F-21) VH: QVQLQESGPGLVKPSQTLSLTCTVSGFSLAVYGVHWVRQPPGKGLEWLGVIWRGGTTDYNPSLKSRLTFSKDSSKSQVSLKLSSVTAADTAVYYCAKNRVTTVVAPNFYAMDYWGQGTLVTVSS VL: DIVMTQSPDSLAVSLGERVTMNCKSSQSLLYSGNQKNYLAWYQQKPGQSPKLLIYWASTRKSGVPDRFSGSGSGTDFTLTISSLQAEDVAAYYCQQYYTYPLTFGQGTRLEIK ?
Result: 1760
